These entries and their values trace back to patent US5227395A.

Assignment: determine reported inhibition at 25 µg/mL for the given molecules.
Test system: platelet aggregation
assay-procedure: In vitro anti-platelet test: inhibition of arachidonic acid-induced platelet aggregation in platelet-rich plasma (Born's turbidimetric method)
Format: cell-based, male Japanese white rabbits
condition-notes: Oryctolagus cuniculus, 5 min, 25 μg/ml, rabbit PRP, 37° C., read-out: Percentage inhibition of platelet aggregation
Give bare numbers, in %.

Worked examples, 4 molecules total:
[
  {
    "molecule": "COc1ccc(OC(=O)N2CCCC2=O)cc1 [Compound No. 4]",
    "tested-system": "platelet aggregation",
    "unit-string": "%",
    "inhibition at 25 µg/mL": 72.5
  },
  {
    "molecule": "Cc1ccccc1OC(=O)N1CCCC1=O [Compound No. 5]",
    "tested-system": "platelet aggregation",
    "unit-string": "%",
    "inhibition at 25 µg/mL": 35.8
  },
  {
    "molecule": "Cc1ccc(OC(=O)N2CCCC2=O)cc1 [Compound No. 7]",
    "tested-system": "platelet aggregation",
    "unit-string": "%",
    "inhibition at 25 µg/mL": 31
  },
  {
    "molecule": "COc1ccccc1OC(=O)N1CCCC1=O [Compound No. 2]",
    "tested-system": "platelet aggregation",
    "unit-string": "%",
    "inhibition at 25 µg/mL": 69.8
  }
]

# evaluate next
Exam item: Answer with the recorded inhibition at 25 µg/mL for the molecule listed here: COc1cccc(OC)c1OC(=O)N1CCCC1=O [Compound No. 18]
Marked response: 64.8

====

Give inhibition at 50 µg/mL for every item shown.
Test system: platelet aggregation
assay-procedure: In vitro anti-platelet test: inhibition of arachidonic acid-induced platelet aggregation in platelet-rich plasma (Born's turbidimetric method)
Assay type: cell-based, male Japanese white rabbits
condition-notes: Oryctolagus cuniculus, 5 min, 50 μg/ml, rabbit PRP, 37° C., read-out: Percentage inhibition of platelet aggregation
Numbers only, in %.

[
  {
    "molecule": "Cc1cccc(OC(=O)N2CCCC2=O)c1",
    "unit-string": "%",
    "inhibition at 50 µg/mL": 4.7
  },
  {
    "molecule": "Cc1ccccc1OC(=O)N1CCCC1=O",
    "unit-string": "%",
    "inhibition at 50 µg/mL": 50.6
  },
  {
    "molecule": "COc1ccc(OC(=O)N2CCCC2=O)cc1",
    "unit-string": "%",
    "inhibition at 50 µg/mL": 95.5
  },
  {
    "molecule": "Cc1ccc(OC(=O)N2CCCC2=O)cc1",
    "unit-string": "%",
    "inhibition at 50 µg/mL": 70.6
  },
  {
    "molecule": "COc1ccccc1OC(=O)N1CCCC1=O",
    "unit-string": "%",
    "inhibition at 50 µg/mL": 81.6
  }
]

Value sought for every listed molecule: inhibition at 50 µg/mL.
1. COc1cccc(OC(=O)N2CCCC2=O)c1
2. COc1ccc(C(=O)N2CCCC2=O)cc1 [Aniracetam, 1-(4' -Methoxybenzoyl)-2-pyrrolidinone, reference compound]
3. COc1cccc(OC)c1OC(=O)N1CCCC1=O

Marked response:
1: 8.5; 2: 0.4; 3: 90.9

====

Test system: platelet aggregation
assay-procedure: In vitro anti-platelet test: inhibition of arachidonic acid-induced platelet aggregation in platelet-rich plasma (Born's turbidimetric method)
Format: cell-based, male Japanese white rabbits
condition-notes: Oryctolagus cuniculus, 5 min, 10 μg/ml, rabbit PRP, 37° C., read-out: Percentage inhibition of platelet aggregation
metric: inhibition at 10 µg/mL (%)
One number for each entry, in %.

Look over these answered cases.
[
  {
    "smiles-str": "COc1cccc(OC)c1OC(=O)N1CCCC1=O",
    "inhibition at 10 µg/mL, %": 26
  },
  {
    "smiles-str": "COc1ccc(OC(=O)N2CCCC2=O)cc1",
    "inhibition at 10 µg/mL, %": 51.1
  },
  {
    "smiles-str": "Cc1ccccc1OC(=O)N1CCCC1=O",
    "inhibition at 10 µg/mL, %": 5
  },
  {
    "smiles-str": "Cc1ccc(OC(=O)N2CCCC2=O)cc1",
    "inhibition at 10 µg/mL, %": 5.8
  }
]

Could you now look at the following compound, please?
Exam item: Output inhibition at 10 µg/mL of "COc1ccccc1OC(=O)N1CCCC1=O"
Marked response: 40.9
